For each record, write down the corresponding Emax.
Target Of Assay: hCB1 receptor (Homo sapiens, UniProt P21554)
Sequence (P21554 whole entry): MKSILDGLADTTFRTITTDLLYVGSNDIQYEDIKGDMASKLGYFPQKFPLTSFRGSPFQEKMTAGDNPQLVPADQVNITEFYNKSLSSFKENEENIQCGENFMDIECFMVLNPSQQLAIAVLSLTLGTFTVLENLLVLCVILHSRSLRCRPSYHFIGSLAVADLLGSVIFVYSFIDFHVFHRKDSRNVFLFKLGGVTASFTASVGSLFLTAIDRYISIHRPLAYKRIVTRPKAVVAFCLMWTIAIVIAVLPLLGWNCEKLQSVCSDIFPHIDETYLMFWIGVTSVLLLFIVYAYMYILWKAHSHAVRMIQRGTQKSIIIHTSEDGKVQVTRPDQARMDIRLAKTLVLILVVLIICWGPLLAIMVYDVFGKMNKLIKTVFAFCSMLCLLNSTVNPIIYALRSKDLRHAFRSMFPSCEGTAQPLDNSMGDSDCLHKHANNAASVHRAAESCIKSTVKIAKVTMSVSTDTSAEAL
Assay Text: Agonism of CB1 by detection of cAMP using HTRF
Type: cell-based
Measurement Parameters: CHO cells stably expressing CB1 receptor; normalized to DMSO and maximal activation (5 nM CP55940)
// units = %; emit number, no label

**Query** Look at this compound and give its reported Emax. O=C(NC1(C(F)(F)F)CCC1)c1nn(-c2cnccn2)c2c1CC1CCC2O1 (stereo not shown)
**Result** 90.3

**Query** Tell me the measured Emax of CC(C)(C)[C@@H](CO)NC(=O)c1nn(-c2c[n+]([O-])ccn2)c2c1C[C@H]1CC[C@@H]2O1 , please.
**Result** 91.3

**Query** Find the recorded Emax belonging to CC(C)(C)c1nnc(-c2nn(-c3cnccn3)c3c2CC2CCC3O2)s1 (stereo not shown) and report it.
**Result** 114

**Query** What does the record list as Emax for CC(C)(C)c1nnc(-c2nn(-c3c[n+]([O-])ccn3)c3c2CC2CCC3O2)s1 (stereo not shown) ?
**Result** 94.9
